Source of measurements: paper PMC11857663

Tested on: PC-3 (prostate)
QUANTITY_KIND: GI50

INSERT INTO assay_data (compound, reading) VALUES
  ('C=C1C2CCC3(O)C4(C)CCCC(C)(CO)C4C(O)CC3(C2)C1O (stereo not drawn)', '6.5 µM'),
  ('C=C1C[C@@]23C[C@@H]1CC[C@]2(O)[C@@]1(C)CCC[C@@](C)(CO)[C@@H]1[C@H](O)C3', '> 30 µM'),
  ('C=C1C[C@@]23C[C@@H]1CC[C@]2(O)[C@@]1(C)[C@@H](O)CCC(C)(C)[C@@H]1[C@H](O)C3', '> 30 µM');

* * *

Below, each entry is listed alongside its reported GI50.
System: HL-60 (acute myelogenous leukemia, AML)
QUANTITY_KIND: GI50

INSERT INTO measurements (compound, target_or_system, reading) VALUES
  ('C=C1C[C@@]23C[C@@H]1CC[C@]2(O)[C@@]1(C)[C@@H](O)CCC(C)(C)[C@@H]1[C@H](O)C3', 'HL-60 (acute myelogenous leukemia, AML)', '> 30 µM'),
  ('C=C1C[C@@]23C[C@@H]1CC[C@]2(O)[C@@]1(C)CC[C@H](O)C(C)(C)[C@@H]1[C@H](O)C3', 'HL-60 (acute myelogenous leukemia, AML)', '> 30 µM'),
  ('C=C1C2CCC3(O)C4(C)CCCC(C)(CO)C4C(O)CC3(C2)C1O (stereo not drawn)', 'HL-60 (acute myelogenous leukemia, AML)', '11.2 µM'),
  ('COc1cccc2c1C(=O)c1c(O)c3c(c(O)c1C2=O)C[C@@](O)(C(=O)CO)C[C@@H]3O[C@H]1C[C@H](N)[C@H](O)[C@H](C)O1 [Doxorubicin, reference compound]', 'HL-60 (acute myelogenous leukemia, AML)', '0.029 µM'),
  ('C=C1C[C@@]23C[C@@H]1CC[C@]2(O)[C@@]1(C)CCC[C@@](C)(CO)[C@@H]1[C@H](O)C3', 'HL-60 (acute myelogenous leukemia, AML)', '> 30 µM'),
  ('C=C1C[C@@]23C[C@@H]1CC[C@]2(O)[C@@]1(C)CCCC(C)(C)[C@@H]1[C@H](O)C3', 'HL-60 (acute myelogenous leukemia, AML)', '16.4 µM');

* * *

Below, each entry is listed alongside its reported GI50.
System: Raji (Burkitt's lymphoma)
QUANTITY_KIND: GI50

INSERT INTO assay_data (molecule, reading) VALUES
  ('C=C1C[C@@]23C[C@@H]1CC[C@]2(O)[C@@]1(C)CC[C@H](O)C(C)(C)[C@@H]1[C@H](O)C3 [compound 1, geliboluol A]', '> 30 µM'),
  ('C=C1C[C@@]23C[C@@H]1CC[C@]2(O)[C@@]1(C)CCCC(C)(C)[C@@H]1[C@H](O)C3 [compound 5]', '4.58 µM'),
  ('C=C1C2CCC3(O)C4(C)CCCC(C)(CO)C4C(O)CC3(C2)C1O (stereo not drawn) [compound 4, geliboluol D]', '2.73 µM');

* * *

Below, each entry is listed alongside its reported GI50.
System: PC-3 (prostate)
QUANTITY_KIND: GI50

INSERT INTO assay_data (molecule, target_or_system, quantity_kind, reading) VALUES
  ('COc1cccc2c1C(=O)c1c(O)c3c(c(O)c1C2=O)C[C@@](O)(C(=O)CO)C[C@@H]3O[C@H]1C[C@H](N)[C@H](O)[C@H](C)O1 [Doxorubicin, reference compound]', 'PC-3 (prostate)', 'GI50', '0.106 µM'),
  ('C=C1C[C@@]23C[C@@H]1CC[C@]2(O)[C@@]1(C)CCCC(C)(C)[C@@H]1[C@H](O)C3', 'PC-3 (prostate)', 'GI50', '> 30 µM'),
  ('C=C1C[C@@]23C[C@@H]1CC[C@]2(O)[C@@]1(C)CC[C@H](O)C(C)(C)[C@@H]1[C@H](O)C3', 'PC-3 (prostate)', 'GI50', '> 30 µM');
